molecular target: Protein Tyrosine Kinase, SYK (Homo sapiens, UniProt P43405)
readout: IC50 (µM)

>>> recorded_result("O=C(O)CCc1nc(-c2ccccc2)c(-c2ccccc2)o1")
28

Values from patent US20060222671A1
